Substrate: NP of A/Wisconsin/67/2005(H3N2/H3W) (influenza A virus A/Wisconsin/67/2005 (H3N2))
Sequence (P03466 whole entry): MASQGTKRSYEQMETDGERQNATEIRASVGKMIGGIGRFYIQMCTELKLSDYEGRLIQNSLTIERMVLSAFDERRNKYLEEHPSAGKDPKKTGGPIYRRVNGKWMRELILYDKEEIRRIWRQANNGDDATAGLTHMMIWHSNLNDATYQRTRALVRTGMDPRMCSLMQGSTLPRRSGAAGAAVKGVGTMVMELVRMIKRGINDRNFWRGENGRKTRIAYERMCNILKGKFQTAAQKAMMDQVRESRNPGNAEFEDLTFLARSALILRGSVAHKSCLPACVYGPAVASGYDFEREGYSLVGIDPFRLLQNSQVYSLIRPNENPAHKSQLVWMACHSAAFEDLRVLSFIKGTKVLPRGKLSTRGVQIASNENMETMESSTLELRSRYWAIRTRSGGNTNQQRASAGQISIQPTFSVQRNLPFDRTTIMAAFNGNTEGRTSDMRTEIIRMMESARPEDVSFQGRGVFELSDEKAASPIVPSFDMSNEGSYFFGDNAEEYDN
assay notes: ELISA on virus-infected fixed MDCK cells
Give measured pEC50 for each item. Keep answers brief.
One number for each entry, as −log10 of the molar value.

Example entries begin here.
NP18 (antibody, V domains shown) VH: EVQLVESGGGLVQPGGSLRLSCAASGFTISGGGIHWVRQAPGKGLEWVASIWPSWGSTSYADSVKGRFTISADTSKNTAYLQMNSLRAEDTAVYYCARFHNGGFLVMDYWGQGTLVTVSS VL: DIQMTQSSSSLSASVGDRVTITCRASQDVGYYVAWYQQKPGKAPKLLIYGPRFLYSGVPSRFSGSGSGTDFTLTISSLQPEDFATYYCQQYSNWPITFGQGTKVEIKR	9.72
NP3 (antibody, V domains shown) VH: EVQLVESGGGLVQPGGSLRLSCAASGFTISNYGIHWVRQAPGKGLEWVAGIWPFGGFTSYADSVKGRFTISADTSKNTAYLQMNSLRAEDTAVYYCARFHWNDHGYMDYWGQGTLVTVSS VL: DIQMTQSPSSLSASVGDRVTITCRASQDVGWYVAWYQQKPGKAPKLLIYSTTGLYSGVPSRFSGSGSGTDFTLTISSLQPEDFATYYCQQYYNYPITFGQGTKVEIKR	9.60
NP15 (antibody, V domains shown) VH: EVQLVESGGGLVQPGGSLRLSCAASGFTISNWYIHWVRQAPGKGLEWVAGIGPYGGSTYYADSVKGRFTISADTSKNTAYLQMNSLRAEDTAVYYCARFHWDHLHGMDYWGQGTLVTVSS VL: DIQMTQSPSSLSASVGDRVTITCRASQDVDNNVAWYQQKPGKAPKLLISYSTGLYSGVPSRFSGSGSGTDFTLTISSLQPEDFATYYCQQYWNYPITFGQGTKVEIKR	9.35

get_value(item= NP19 (antibody, V domains shown) VH: EVQLVESGGGLVQPGGSLRLSCAASGFTISSWGIHWVRQAPGKGLEWVAGIGPFWGYTSYADSVKGRFTISADTSKNTAYLQMNSLRAEDTAVYYCARFGVDNYGYMDYWGQGTLVTVSS VL: DIQMTQSPSSLSASVGDRVTITCRASQDVSGWVAWYQQKPGKAPKLLISWSTGLYSGVPSRFSGSGSGTDFTLTISSLQPEDFATYYCQQYFNFPVTFGQGTKVEIKR , readout=pEC50) returns 9.67
